Data origin, for the record: patent US12077503B2

Measured Plant response rating, Ragweed, listed per entry.
# System: ragweed (common ragweed, Ambrosia elatior)
# PROCEDURE_TEXT: Test A preemergence
# Assay type: in vivo
# MEASUREMENT_SETUP: 125 g ai/ha, preemergence; visual rating after approx. 10 d; 0 to 100 scale where 0 is no effect and 100 is complete control
# From the text: […]

MOLECULE | Plant response rating, Ragweed
CC(=O)c1ccccc1NC(=O)C1C(=O)NCC1c1cccc(C(F)(F)F)c1 (racemic) [Compound 706] | 0
CN1CC(c2ccc(C(C)(F)F)cc2)C(C(=O)Nc2ccccc2F)C1=O (centres unmarked) [Compound 691] | 60
O=C1NCC(c2ccc(I)cc2)C1C(=O)Nc1ccc(F)cc1F (racemic) [Compound 701] | 0
O=C1NCC(c2cccc(OC(F)(F)C(F)F)c2)C1C(=O)Nc1ccccc1Cl (racemic) [Compound 699] | 0
O=C1NCC(c2cccc(OC(F)(F)C(F)F)c2)C1C(=O)Nc1ccccc1F (racemic) [Compound 695] | 20

* * *

# Test system: velvetleaf (Abutilon theophrasti)
# PROCEDURE_TEXT: Test G Post-Emergence Protocol
# Format: in vivo
# MEASUREMENT_SETUP: Abutilon theophrasti, post-emergence, 312 h, 62.5 g ai/ha, evaluated after 13 days, read-out: Velvetleaf damage rating (100=total damage to plant; 0=no damage to plant)
READOUT_TYPE: pest or weed control at 62.5 g/ha (%)

MOLECULE | UNIT_LABEL | VAL
CN1C[C@H](c2ccc(C(F)(F)F)cc2)[C@@H](C(=O)Nc2ccccc2S(C)(=O)=O)C1=O (racemic) | % | 0
CN1C[C@@H](c2ccc(C(F)(F)F)cc2)[C@H](C(=O)Nc2cc(F)c(F)c(F)c2F)C1=O (racemic) | % | 10
CN1C[C@@H](c2ccc(C(F)(F)F)cc2)[C@H](C(=O)Nc2ccc(F)cc2C(F)(F)F)C1=O (racemic) | % | 0
CN1C[C@H](c2ccc3c(c2)OCCO3)[C@@H](C(=O)Nc2cccc(F)c2F)C1=O (racemic) | % | 0
Cc1cc(NC(=O)[C@@H]2C(=O)N(C)C[C@H]2c2ccc(C(F)(F)F)cc2)ccc1F (racemic) | % | 0
CN1C[C@@H](c2ccc(C(F)(F)F)cc2)[C@H](C(=O)Nc2n[nH]c(C(F)(F)F)n2)C1=O (racemic) | % | 0
Cc1n[nH]c(NC(=O)[C@@H]2C(=O)N(C)C[C@H]2c2ccc(C(F)(F)F)cc2)c1C#N (racemic) | % | 0

* * *

# Test system: Kochia (Kochia scoparia)
# PROCEDURE_TEXT: Test A postemergence
# Format: in vivo
# MEASUREMENT_SETUP: Bassia scoparia, post-emergence, 240 h, 125 g ai/ha, postemergence, visual injury rating after approximately 10 d; read-out: Kochia plant response rating (0 to 100 scale, 0 no effect, 100 complete control)
// pest or weed control at 125 g/ha lookup, one value per entry

MOLECULE_SMILES | SYSTEM_UNDER_TEST | UNIT_LABEL | pest or weed control at 125 g/ha
COc1ccc([C@H]2CN(C)C(=O)[C@@H]2C(=O)Nc2ccccc2SC)cc1OC | Kochia (Kochia scoparia) | % | 0
CN1C[C@H](c2cccc(COC(F)F)c2)[C@@H](C(=O)Nc2ccccc2F)C1=O | Kochia (Kochia scoparia) | % | 40
Cc1cc(C)cc([C@H]2CNC(=O)[C@@H]2C(=O)Nc2cccc(F)c2F)c1 | Kochia (Kochia scoparia) | % | 0
CN1C[C@H](c2cccc(C3CC3)c2)[C@@H](C(=O)Nc2ccccc2S(C)(=O)=O)C1=O | Kochia (Kochia scoparia) | % | 0
CCOc1ccc([C@H]2CNC(=O)[C@@H]2C(=O)Nc2ccc(F)cc2F)cc1 | Kochia (Kochia scoparia) | % | 0
CSc1ccccc1NC(=O)[C@H]1C(=O)NC[C@@H]1c1cccc2c1OC(F)(F)O2 | Kochia (Kochia scoparia) | % | 0
CN1C[C@H](c2cc(F)c(C(F)(F)F)c(F)c2)[C@@H](C(=O)Nc2ccccc2S(C)(=O)=O)C1=O | Kochia (Kochia scoparia) | % | 30
CSc1ccccc1NC(=O)[C@H]1C(=O)N(C)C[C@@H]1c1cc(F)c(F)c(F)c1 | Kochia (Kochia scoparia) | % | 20
CN1C[C@H](c2cc(F)c(C(F)(F)F)c(F)c2)[C@@H](C(=O)Nc2ccc(F)cc2F)C1=O | Kochia (Kochia scoparia) | % | 30
COc1c(F)ccc([C@H]2CNC(=O)[C@@H]2C(=O)Nc2ccccc2C(F)(F)F)c1Cl | Kochia (Kochia scoparia) | % | 0
CN1C[C@H](c2cc(F)cc(F)c2)[C@@H](C(=O)Nc2ccccc2[S@+](C)[O-])C1=O | Kochia (Kochia scoparia) | % | 0
